System: SW480
test method notes: drug sensitivity score (DSS, integrated dose-response area); higher = more sensitive (stronger viability reduction); extreme values may be limits of the assay
measurement setup: shRNA: SND1 shRNA1 (SND1 silenced)
# label = 1 if drug sensitivity score >= 0.2 DSS else 0

Does drug sensitivity score meet or surpass 0.2 DSS for Cc1cc(Nc2cc(N3CCN(C)CC3)nc(Sc3ccc(NC(=O)C4CC4)cc3)n2)n[nH]1 [Tozasertib] ?
1

Hi, just wondering whether CC(C)NC(=O)COc1cccc(-c2nc(Nc3ccc4[nH]ncc4c3)c3ccccc3n2)c1 [SLx-2119] shows drug sensitivity score of 0.2 DSS or higher.
0

Does the reported drug sensitivity score for CCOc1ccn(-c2ccc(F)cc2)c(=O)c1C(=O)Nc1ccc(Oc2ccnc(N)c2Cl)c(F)c1 fall at or above the 0.2 DSS mark?
1

Hello, I need to know if CC(C)CC(=O)Nc1n[nH]c2c1CN(C(=O)C1CCN(C)CC1)C2(C)C has measured drug sensitivity score not below 0.2 DSS. Thanks!
1

* * *

Test system: SW480
test method notes: drug sensitivity score (DSS, integrated dose-response area); higher = more sensitive (stronger viability reduction); extreme values may be limits of the assay
measurement setup: shRNA: SND1 shRNA1 (SND1 silenced)
Label scheme for drug sensitivity score: lower than 1 DSS is Criterion not met, 1 DSS and above is Criterion met.

Is drug sensitivity score at least 1 DSS? Consider O=C(Nc1ccc(-c2ccnc(Nc3ccc(N4CCOCC4)cc3)n2)cc1)C1CCCN1 (stereo not given)
Criterion not met

Could you verify whether the entry CC(C)C[C@H](NC(=O)[C@H](CCc1ccccc1)NC(=O)CN1CCOCC1)C(=O)N[C@@H](Cc1ccccc1)C(=O)N[C@@H](CC(C)C)C(=O)[C@@]1(C)CO1 shows drug sensitivity score of no less than 1 DSS?
Criterion met

Determine whether this compound has drug sensitivity score no lower than 1 DSS: C#Cc1cccc(Nc2ncnc3cc4c(cc23)OCCOCCOCCO4)c1
Criterion met

Is the recorded value of drug sensitivity score equal to or greater than 1 DSS for this compound? CC(C)C[C@H](NC(=O)[C@H](Cc1ccccc1)NC(=O)c1cnccn1)B(O)O
Criterion met

Given the entry S=P(N1CC1)(N1CC1)N1CC1 , answer whether its drug sensitivity score meets or surpasses 1 DSS.
Criterion not met

Could you verify whether the entry Nc1nc2[nH]cnc2c(=S)[nH]1 shows drug sensitivity score of no less than 1 DSS?
Criterion met

Does the compound COc1cc2ncnc(Nc3ccc(F)c(Cl)c3)c2cc1NC(=O)/C=C/CN1CCCCC1 have recorded drug sensitivity score that is 1 DSS or more?
Criterion met

Does the reported drug sensitivity score for CO[C@H]1C[C@@H]2CC[C@@H](C)[C@@](O)(O2)C(=O)C(=O)N2CCCC[C@H]2C(=O)O[C@H]([C@H](C)C[C@@H]2CC[C@@H](OC(=O)C(C)(CO)CO)[C@H](OC)C2)CC(=O)[C@H](C)/C=C(\C)[C@@H](O)[C@@H](OC)C(=O)[C@H](C)C[C@H](C)/C=C/C=C/C=C/1C fall at or above the 1 DSS mark?
Criterion met

Record c1ccc2c(CCNc3ccc(Nc4ccncc4)cc3)c[nH]c2c1 ; criterion: drug sensitivity score no lower than 1 DSS. Met?
Criterion met

Does the compound CS(=O)(=O)N1CCc2c(-c3cnc(N)nc3)nc(N3CCOCC3)nc21 have recorded drug sensitivity score that is 1 DSS or more?
Criterion met

Decide: is the reported value of drug sensitivity score for C=CC(=O)N1CCC(Oc2cc3c(Nc4ccc(Cl)c(Cl)c4F)ncnc3cc2OC)CC1 equal to or greater than 1 DSS?
Criterion not met

Record C[C@@H]1CN(Cc2ccc(F)cc2)[C@@H](C)CN1C(=O)c1cc2c(C(=O)C(=O)N(C)C)cn(C)c2cc1Cl ; criterion: drug sensitivity score no lower than 1 DSS. Met?
Criterion not met

Is the recorded value of drug sensitivity score equal to or greater than 1 DSS for this compound? CCNC(=O)c1noc(-c2cc(C(C)C)c(O)cc2O)c1-c1ccc(CN2CCOCC2)cc1
Criterion met

Does the reported drug sensitivity score for CN(C)CCN1C(=O)c2cccc3cc(N)cc(c23)C1=O [Amonafide] fall at or above the 1 DSS mark?
Criterion met

In plain terms: is recorded drug sensitivity score at least 1 DSS for CC(=O)O[C@@]12CO[C@@H]1C[C@H](O)[C@@]1(C)C(=O)[C@H](O)C3=C(C)[C@@H](OC(=O)[C@H](O)[C@@H](NC(=O)OC(C)(C)C)c4ccccc4)C[C@@](O)([C@@H](OC(=O)c4ccccc4)[C@H]21)C3(C)C ?
Criterion met

Assess whether reported drug sensitivity score for C[C@@H](Oc1ccc2[nH]nc(/C=C/c3cnn(CCO)c3)c2c1)c1c(Cl)cncc1Cl sits at 1 DSS or higher.
Criterion met

Say whether CCc1cnn2c(NCc3ccc[n+]([O-])c3)cc(N3CCCC[C@H]3CCO)nc12 shows drug sensitivity score of 1 DSS or more.
Criterion met

drug sensitivity score >= 1 DSS for Cc1ccc(C(=O)Nc2ccc(Oc3cc4cnn(C)c4cc3-c3cn[nH]c3)c(F)c2)c(=O)n1-c1ccc(F)cc1 ?
Criterion met

I'd appreciate it if you could say whether CCCCCCCCc1ccc(CCC(N)(CO)CO)cc1 has drug sensitivity score at least equal to 1 DSS.
Criterion met

Decide: is the reported value of drug sensitivity score for CC(=O)O[C@]1(C(C)=O)CC[C@H]2[C@@H]3C=C(C)C4=CC(=O)CC[C@]4(C)[C@H]3CC[C@@]21C [Megestrol acetate] equal to or greater than 1 DSS?
Criterion not met

Form field: drug sensitivity score at least 1 DSS? Entry: CNC(=O)CN1CCC(Oc2cc3c(Nc4cccc(Cl)c4F)ncnc3cc2OC)CC1
Criterion not met

Answer whether drug sensitivity score of C/C(=C\c1csc(C)n1)[C@@H]1C[C@@H]2O[C@]2(C)CCC[C@H](C)[C@H](O)[C@@H](C)C(=O)C(C)(C)[C@@H](O)CC(=O)O1 is greater than or equal to 1 DSS.
Criterion met

Hello, I need to know if CNc1nc(-c2ccc3c(N)n[nH]c3c2)cc(N2C[C@@H](C(=O)NC3CCCCC3)CC[C@H]2C)n1 has measured drug sensitivity score not below 1 DSS. Thanks!
Criterion met

Decide: drug sensitivity score of Nc1nccc(-c2c(-c3ccc(F)cc3)ncn2C2CCCCC2)n1 >= 1 DSS?
Criterion not met

drug sensitivity score >= 1 DSS for Cc1cnc(-c2ccccc2C(C)C)nc1NCc1ccc(-n2ccnn2)cc1 ?
Criterion not met

Given CN(N=O)C(=O)N[C@@H](C=O)[C@@H](O)[C@H](O)[C@H](O)CO , state whether its drug sensitivity score is at least 1 DSS.
Criterion not met

Is drug sensitivity score for CC(=O)c1c(C)c2cnc(Nc3ccc(N4CCNCC4)cn3)nc2n(C2CCCC2)c1=O at or above 1 DSS?
Criterion met

Does the compound Cc1ccc(Nc2nccc(N(C)c3ccc4c(C)n(C)nc4c3)n2)cc1S(N)(=O)=O have recorded drug sensitivity score that is 1 DSS or more?
Criterion not met

Given the entry COc1cc(C(=O)O)ccc1NC(=O)[C@@H]1N[C@@H](CC(C)(C)C)[C@](C#N)(c2ccc(Cl)cc2F)[C@H]1c1cccc(Cl)c1F , answer whether its drug sensitivity score meets or surpasses 1 DSS.
Criterion not met

Assess whether reported drug sensitivity score for CN(C)C1CCN(C(=O)c2ccc(NC(=O)Nc3ccc(-c4nc(N5CCOCC5)nc(N5CCOCC5)n4)cc3)cc2)CC1 sits at 1 DSS or higher.
Criterion met

* * *

Test system: SW480
test method notes: drug sensitivity score (DSS, integrated dose-response area); higher = more sensitive (stronger viability reduction); extreme values may be limits of the assay
measurement setup: shRNA: SND1 shRNA1 (SND1 silenced)
endpoint label: drug sensitivity score (DSS)
Report as a plain number; the unit DSS is understood.

For the compound C[C@H]1C[C@@H]2[C@H]([C@@H](O)C[C@@]3(C)[C@H]2CC[C@]3(O)C(=O)CO)[C@@]2(C)C=CC(=O)C=C12 , the measured drug sensitivity score on SW480 was 0

Reading of drug sensitivity score for FC(F)c1nc2ccccc2n1-c1nc(N2CCOCC2)nc(N2CCOCC2)n1 with SW480: 7.3

Simply: CC(C)c1cc(C(=O)N2Cc3ccc(CN4CCN(C)CC4)cc3C2)c(O)cc1O , SW480, drug sensitivity score = 11.3

Param item: COC(=O)C[C@](O)(CCCC(C)(C)O)C(=O)O[C@@H]1C(OC)=C[C@]23CCCN2CCc2cc4c(cc2[C@H]13)OCO4 ; param system: SW480; output drug sensitivity score: 21.9

Sample CCN(CC)CCCC(C)Nc1ccnc2cc(Cl)ccc12 (configuration not stated) , system: SW480. Its drug sensitivity score is 14.9

Let me check: COc1cc2c(NC3CCN(C(C)C)CC3)nc(N3CCC(F)(F)CC3)nc2cc1OCCCN1CCCC1 , system SW480, measured drug sensitivity score is 4.7

Reported drug sensitivity score (SW480) for entry NC(=O)Nc1sc(-c2ccc(F)cc2)cc1C(N)=O is 3.8

# drug sensitivity score measured on SW480 for item CCc1cc2c(cc1N1CCC(N3CCOCC3)CC1)C(C)(C)c1[nH]c3cc(C#N)ccc3c1C2=O = 0

Entry CN(C)c1nc(N(C)C)nc(N(C)C)n1 under SW480 had drug sensitivity score of 0

Item CCn1c(C(=O)N(C2CC2)C2CC2)cc2c3c(ncn3C)c(Nc3cc(C)n(C)n3)nc21 was tested on SW480; the reported drug sensitivity score is 0

Field drug sensitivity score (system: SW480) for entry CCC/C=C/C=C/C(=O)O[C@H]1/C(=C/C(=O)OC)C[C@H]2C[C@H]([C@@H](C)O)OC(=O)C[C@H](O)C[C@@H]3C[C@H](OC(C)=O)C(C)(C)[C@](O)(C[C@@H]4C/C(=C/C(=O)OC)C[C@H](/C=C/C(C)(C)[C@]1(O)O2)O4)O3 = 1.7

Record Cn1c(=O)n(-c2ccc(C(C)(C)C#N)cc2)c2c3cc(-c4cnc5ccccc5c4)ccc3ncc21 ; system SW480; drug sensitivity score = 17.8

Log: SW480, compound CNC(=O)c1cc(Oc2ccc(NC(=O)Nc3ccc(Cl)c(C(F)(F)F)c3)c(F)c2)ccn1 , drug sensitivity score = 7.8

// returns drug sensitivity score for FC(F)(F)c1ccc(/C=C/c2nc(COc3ccc(CCCCn4ccnn4)cc3)co2)cc1 with SW480; value = 3.8

Item Cc1ccc(C(=O)N(CCCN)[C@@H](c2oc3cc(Cl)ccc3c(=O)c2Cc2ccccc2)C(C)C)cc1 ; assay system SW480; drug sensitivity score reported as 2.9

Tested on SW480: O=C(Nc1cc(Cl)cc2c1[nH]c1cnccc12)c1cccnc1 . Observed drug sensitivity score: 0.4

Param item: CC(C)(C)c1cc(NC(=O)Nc2ccc(-c3cn4c(n3)sc3cc(OCCN5CCOCC5)ccc34)cc2)no1 ; param system: SW480; output drug sensitivity score: 0

COc1cc2c(Oc3ccc(NC(=O)C4(C(=O)Nc5ccc(F)cc5)CC4)cc3F)ccnc2cc1OCCCN1CCOCC1 on SW480 gives drug sensitivity score = 4.1

Reading of drug sensitivity score for O=c1[nH]cc(F)c(=O)[nH]1 with SW480: 0.5

# O=C(Nc1cccc(NC(=O)c2cccc(O)c2O)c1)c1cccc(O)c1O with SW480: drug sensitivity score is 7.6

Item Nc1cccc2c1CN(C1CCC(=O)NC1=O)C2=O (configuration not stated) [Lenalidomide] was tested on SW480; the reported drug sensitivity score is 0

The observed drug sensitivity score for CN(c1ccccc1CNc1nc(Nc2ccc3c(c2)CC(=O)N3)ncc1C(F)(F)F)S(C)(=O)=O when tested with SW480 stands at 9.7

Observed drug sensitivity score, SW480, Cc1nc(N)sc1-c1ccnc(Nc2ccc(N3CCOCC3)cc2)n1 : 9.3

Response field drug sensitivity score (SW480) for item O=C(Nc1ccc2[nH]nc(-c3ccncc3)c2c1)[C@@H]1CCN(CC(=O)N2CCN(c3ccc(-c4ncccn4)cc3)CC2)C1 : 14.2

// returns drug sensitivity score for CCS(=O)(=O)N1CC(CC#N)(n2cc(-c3ncnc4[nH]ccc34)cn2)C1 with SW480; value = 0

Per the reported SW480 data, CNC(=O)c1ccc(N2C(=S)N(c3ccc(C#N)c(C(F)(F)F)c3)C(=O)C2(C)C)cc1F [Enzalutamide] has drug sensitivity score of 0

SW480 drug sensitivity score of Cc1cc2c(F)c(Oc3ncnn4cc(OC[C@@H](C)O)c(C)c34)ccc2[nH]1 is 0

Result for Cn1c(Nc2ccc(C(F)(F)F)cc2)nc2cc(Oc3ccnc(-c4ncc(C(F)(F)F)[nH]4)c3)ccc21 , tested on SW480, drug sensitivity score: 0

Noted drug sensitivity score for O=C(Nc1cccnc1)N1CCC(Cc2cccc(Oc3ccc(C(F)(F)F)cn3)c2)CC1 , tested on SW480: 0.1

Case N[C@@H]1CCCN(c2c(/C=C3\SC(=O)NC3=O)cccc2-c2ccccc2)C1 , SW480, drug sensitivity score recorded as 0

Entry Nc1nc(Cl)nc2c1ncn2[C@@H]1O[C@H](CO)[C@@H](O)[C@@H]1F under SW480 had drug sensitivity score of 8.4

So the reported drug sensitivity score for CCn1c(-c2nonc2N)nc2cnc(Oc3cccc(NC(=O)c4ccc(OCCN5CCOCC5)cc4)c3)cc21 , on SW480, turned out to be 4.8
